Taken from PubChem BioAssay AID652126.

Measured activation, listed per entry.
system: Nuclear hormone receptor DAF-12 (Strongyloides stercoralis); test: S. stercoralis DAF-12 nuclear receptor activators, primary screen, cell-based, luminescence, HEK293, GRIP1 co-expression, lit1-tk-luc (AID 652126); settings: HEK293 ssDAF-12/GRIP1 lit1-tk-luc reporter, at 6.8 µM, active compounds read high, % of 3 µM dafachronic acid response;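 also: 0% = DMSO-only wells and 100% = 3 µM delta7-dafachronic acid wells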
Screen size: about 370,000 compounds; about 3,700 (1%) were called active. This is one part of a sample in which actives are shown more often than they occur.
// units = %; emit number, no label

Below, each entry is followed by its recorded activation result.
> print(dat)
                                   molecule  numeric.result
1  COc1ccc2c(c1)c(C(=O)N/N=C/c1cccs1)c(C)n2C            1.69
2  COc1ccc(C(CNC(=O)c2cc3c(s2)CCCC3)N2CCOCC2)cc1 (centres undefined)           -1.09

activation for CC(C)(C)OC(=O)NCCc1ccccc1/C=C/S(=O)(=O)NCc1ccc(F)cc1 ?
-0.76

Give its activation value. Item: CC(CCN1CCC(C(O)(c2ccccc2)c2ccccc2)CC1)Oc1ccc(C(F)(F)F)cc1 (centres undefined)
-0.69

---

system: Nuclear hormone receptor DAF-12 (Strongyloides stercoralis); assay: S. stercoralis DAF-12 nuclear receptor activators, primary screen, cell-based, luminescence, HEK293, GRIP1 co-expression, lit1-tk-luc (AID 652126); settings: HEK293 ssDAF-12/GRIP1 lit1-tk-luc reporter, at 6.8 µM, % of 3 µM dafachronic acid response;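 also: 0% = DMSO-only wells and 100% = 3 µM delta7-dafachronic acid wells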
In all, about 370,000 compounds went through this assay and about 3,700 (1%) were called active.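 Rule for the calls: active = activation above the mean over all tested compounds plus 3 SD (cut at about 0.9% in these data); inactive = the rest.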 The list comes from a sample in which actives are over-represented; it also holds close analogues and randomly drawn compounds.
Result category, one only: yes (1) for active, no (0) for inactive

Solved entries:
> print(dat)
                                   molecule  assigned.label
1  CCCCn1c(SCC(=O)NCC2CCCO2)nc2ccc(N3CCOCC3)cc2c1=O (configuration not stated)          no (0)
2  C=CCn1c(SCC(=O)NCC2CCCO2)nc2sc(C)c(C)c2c1=O (configuration not stated)         yes (1)
3  Cc1nnc(-c2ccc(Oc3ccc(C)c(C)c3)c([N+](=O)[O-])c2)o1          no (0)
4  O=C(C1CCN(C2CCN(Cc3cccc4c3OCO4)CC2)CC1)N1CCOCC1          no (0)
5  C/C(=C\c1ccco1)CN1CCC(N2CCC(C(=O)N3CCOCC3)CC2)CC1         yes (1)
6                Fc1ccc2cnc(-c3ccccc3)cc2c1          no (0)

Proceed to the following item.
What did this assay record as the result for O=C(C1CCN(C2CCN(Cc3ccc4cc(F)ccc4n3)CC2)CC1)N1CCCC1 ?
no (0)

---

tested on: Nuclear hormone receptor DAF-12 (Strongyloides stercoralis); experiment: S. stercoralis DAF-12 nuclear receptor activators, primary screen, cell-based, luminescence, HEK293, GRIP1 co-expression, lit1-tk-luc (AID 652126); conditions: HEK293 ssDAF-12/GRIP1 lit1-tk-luc reporter, at 6.8 µM, active compounds read high, % of 3 µM dafachronic acid response;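 also: 0% = DMSO-only wells and 100% = 3 µM delta7-dafachronic acid wells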
Hit rate of the full screen: of about 370,000 compounds, about 3,700 (1%) were called active. The entries come from a sample that favours actives as a whole.
Metric name: activation (%)
Your answer should be a plain number; it is taken to be in %.

Illustrative cases are given below, each with its answer.
> print(dat)
                                   compound  numeric.result
1  Cc1sc2nc(SCC(=O)c3ccc(O)c(O)c3)n(Cc3ccco3)c(=O)c2c1C           -1.42
2  O=C1CC[C@@H](COc2ccc3[nH]cc(-c4ccccc4)c3c2-c2ccccc2)N1           -0.33
3  CC(C)C(C#CC1CC1)N(Cc1ccc2c(c1)OCO2)C(N)=NC(=O)/C=C/c1cccc(C(F)(F)F)c1 (stereo not given)           -1.84
4  FC(F)(F)c1cccc(NC(=S)OC2CCC23CCC(c2ccccc2)CC3)c1 (stereo not given)           -0.81

Below: the item to evaluate.
State the recorded activation for this entry: O=C(CCCCCN1C(=O)C2C3C=CC(C3)C2C1=O)Nc1ccccn1 (stereo not given)
-1.93
